Measurement target: UniProtKB Q9HCF6
Sequence (Q9HCF6 whole entry): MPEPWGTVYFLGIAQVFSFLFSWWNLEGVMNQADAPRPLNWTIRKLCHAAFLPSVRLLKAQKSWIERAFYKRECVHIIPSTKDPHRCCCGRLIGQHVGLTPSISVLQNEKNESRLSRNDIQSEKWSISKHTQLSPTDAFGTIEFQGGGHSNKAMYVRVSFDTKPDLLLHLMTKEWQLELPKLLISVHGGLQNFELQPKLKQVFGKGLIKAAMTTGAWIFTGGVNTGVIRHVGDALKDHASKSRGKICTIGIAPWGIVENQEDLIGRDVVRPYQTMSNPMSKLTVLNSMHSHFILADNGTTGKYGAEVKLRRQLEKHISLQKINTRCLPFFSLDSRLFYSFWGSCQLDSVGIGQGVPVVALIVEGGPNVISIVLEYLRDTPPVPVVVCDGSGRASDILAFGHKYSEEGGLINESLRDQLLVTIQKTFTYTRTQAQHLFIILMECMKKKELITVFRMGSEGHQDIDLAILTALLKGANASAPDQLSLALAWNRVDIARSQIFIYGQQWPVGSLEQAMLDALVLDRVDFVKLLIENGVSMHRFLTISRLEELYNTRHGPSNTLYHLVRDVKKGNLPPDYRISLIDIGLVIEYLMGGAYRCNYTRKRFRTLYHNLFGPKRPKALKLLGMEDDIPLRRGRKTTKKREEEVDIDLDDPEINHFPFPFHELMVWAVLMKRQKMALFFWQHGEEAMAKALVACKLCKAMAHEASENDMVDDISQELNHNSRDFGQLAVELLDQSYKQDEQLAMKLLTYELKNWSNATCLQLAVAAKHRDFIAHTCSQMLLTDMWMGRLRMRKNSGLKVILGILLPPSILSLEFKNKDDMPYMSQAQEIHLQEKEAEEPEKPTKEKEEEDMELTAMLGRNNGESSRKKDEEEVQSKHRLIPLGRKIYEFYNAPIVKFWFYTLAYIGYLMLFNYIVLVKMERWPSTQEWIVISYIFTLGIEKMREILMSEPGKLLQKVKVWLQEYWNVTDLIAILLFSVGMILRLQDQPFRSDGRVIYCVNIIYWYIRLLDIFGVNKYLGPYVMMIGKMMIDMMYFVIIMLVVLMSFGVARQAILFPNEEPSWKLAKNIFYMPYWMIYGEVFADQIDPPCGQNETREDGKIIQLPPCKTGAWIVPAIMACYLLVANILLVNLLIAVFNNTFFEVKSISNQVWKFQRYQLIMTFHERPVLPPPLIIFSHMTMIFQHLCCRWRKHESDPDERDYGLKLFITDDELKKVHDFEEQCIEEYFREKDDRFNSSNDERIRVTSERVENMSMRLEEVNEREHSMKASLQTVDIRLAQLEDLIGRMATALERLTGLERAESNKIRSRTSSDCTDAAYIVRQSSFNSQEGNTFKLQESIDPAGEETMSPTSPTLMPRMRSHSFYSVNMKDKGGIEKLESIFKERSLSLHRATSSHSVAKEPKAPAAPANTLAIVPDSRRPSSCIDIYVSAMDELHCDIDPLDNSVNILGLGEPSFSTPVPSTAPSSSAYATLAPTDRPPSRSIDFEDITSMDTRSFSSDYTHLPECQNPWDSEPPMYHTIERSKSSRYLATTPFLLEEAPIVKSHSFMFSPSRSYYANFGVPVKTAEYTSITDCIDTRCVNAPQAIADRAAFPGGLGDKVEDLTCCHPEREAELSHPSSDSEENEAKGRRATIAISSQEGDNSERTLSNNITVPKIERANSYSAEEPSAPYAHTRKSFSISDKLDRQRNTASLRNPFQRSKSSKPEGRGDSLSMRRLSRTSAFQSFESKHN
Quantity kind: EC50 (µM)

- Compound: "CCCCCCCC(=O)OC[C@H](COP(=O)(O)O[C@@H]1[C@H](O)[C@H](O)[C@@H](OP(=O)(O)O)[C@H](OP(=O)(O)O)[C@H]1O)OC(=O)CCCCCCC [diC8 PI(4,5)P2]"
  Measurement: 18
